Molecular target: Sodium channel protein type 9 subunit alpha (Homo sapiens)
Sequence (Q15858 whole entry): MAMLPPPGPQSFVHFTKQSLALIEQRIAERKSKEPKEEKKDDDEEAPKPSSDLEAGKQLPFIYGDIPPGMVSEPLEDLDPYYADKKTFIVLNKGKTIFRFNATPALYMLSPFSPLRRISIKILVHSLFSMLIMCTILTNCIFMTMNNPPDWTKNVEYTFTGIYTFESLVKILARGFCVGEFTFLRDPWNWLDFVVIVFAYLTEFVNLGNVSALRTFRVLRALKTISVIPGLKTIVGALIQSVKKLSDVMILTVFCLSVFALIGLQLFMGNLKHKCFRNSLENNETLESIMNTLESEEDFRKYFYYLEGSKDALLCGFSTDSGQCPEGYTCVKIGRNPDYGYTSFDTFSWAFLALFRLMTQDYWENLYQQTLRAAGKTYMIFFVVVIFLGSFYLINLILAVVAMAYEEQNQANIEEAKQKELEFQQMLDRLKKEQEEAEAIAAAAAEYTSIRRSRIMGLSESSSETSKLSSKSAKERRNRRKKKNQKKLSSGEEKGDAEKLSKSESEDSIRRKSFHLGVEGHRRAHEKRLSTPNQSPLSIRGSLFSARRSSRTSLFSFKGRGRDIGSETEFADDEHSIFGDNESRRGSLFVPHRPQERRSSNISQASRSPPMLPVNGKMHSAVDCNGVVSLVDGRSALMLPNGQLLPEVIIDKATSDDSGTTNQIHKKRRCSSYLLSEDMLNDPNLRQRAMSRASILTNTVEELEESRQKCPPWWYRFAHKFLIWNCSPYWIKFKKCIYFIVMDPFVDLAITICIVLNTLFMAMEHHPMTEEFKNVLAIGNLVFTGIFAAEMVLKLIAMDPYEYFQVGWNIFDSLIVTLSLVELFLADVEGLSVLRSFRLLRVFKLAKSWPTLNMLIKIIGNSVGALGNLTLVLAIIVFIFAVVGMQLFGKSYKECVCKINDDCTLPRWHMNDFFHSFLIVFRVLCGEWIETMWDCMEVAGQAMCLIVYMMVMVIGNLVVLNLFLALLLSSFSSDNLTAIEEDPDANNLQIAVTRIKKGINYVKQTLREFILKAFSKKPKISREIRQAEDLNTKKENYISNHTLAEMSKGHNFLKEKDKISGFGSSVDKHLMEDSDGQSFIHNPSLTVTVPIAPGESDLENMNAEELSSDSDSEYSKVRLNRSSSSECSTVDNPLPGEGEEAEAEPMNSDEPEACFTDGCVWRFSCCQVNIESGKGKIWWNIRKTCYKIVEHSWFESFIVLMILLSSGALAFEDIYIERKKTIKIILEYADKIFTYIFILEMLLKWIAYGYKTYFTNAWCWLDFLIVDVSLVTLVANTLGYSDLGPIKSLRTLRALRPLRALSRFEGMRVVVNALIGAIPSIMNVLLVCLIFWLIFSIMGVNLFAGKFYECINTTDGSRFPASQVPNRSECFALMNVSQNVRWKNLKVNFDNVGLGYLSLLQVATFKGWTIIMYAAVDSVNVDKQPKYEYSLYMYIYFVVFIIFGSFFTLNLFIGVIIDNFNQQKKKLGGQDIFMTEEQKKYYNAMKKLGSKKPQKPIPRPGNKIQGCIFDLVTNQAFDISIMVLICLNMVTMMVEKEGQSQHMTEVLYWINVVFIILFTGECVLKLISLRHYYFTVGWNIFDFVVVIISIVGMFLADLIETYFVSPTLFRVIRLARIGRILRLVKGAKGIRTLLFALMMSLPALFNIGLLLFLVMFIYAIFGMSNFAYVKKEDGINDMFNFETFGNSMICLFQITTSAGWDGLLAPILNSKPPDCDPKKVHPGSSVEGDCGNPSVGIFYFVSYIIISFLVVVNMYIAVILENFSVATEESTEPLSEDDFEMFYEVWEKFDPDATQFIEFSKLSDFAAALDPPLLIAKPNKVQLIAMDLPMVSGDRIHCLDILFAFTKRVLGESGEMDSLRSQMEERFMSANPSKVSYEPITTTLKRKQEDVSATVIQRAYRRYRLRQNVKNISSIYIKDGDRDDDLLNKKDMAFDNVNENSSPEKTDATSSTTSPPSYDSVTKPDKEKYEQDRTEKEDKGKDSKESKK
Experiment: In Vitro PX Assay: 293 cells stably transfected with human Nav1.7 were recorded in whole cell voltage clamp mode with the PatchXpress automated electrophysiology system (Molecular Devices, LLC, Sunnyvale, Calif.). Compound effects were measured on a partially inactivated state of the sodium channel. Cells were clamped to a holding potential yielding 20 to 50% inactivation. To elicit sodium current, channels were activated by pulsing to −10 mV for 20 msec. This voltage protocol was repeated at a rate of 0.1 Hz throughout the experiment. A single concentration of test compound was applied to cells for a duration of 3 minutes. Peak sodium current was measured at the end of the compound addition period to determine percent inhibition.
Type: cell-based
Value Kind: IC50 (µM)
Express your answer in µM, writing the number without its unit.

The cases that follow already have their IC50 on record.
INSERT INTO results (smiles, system_name, value_kind, value_observed) VALUES
  ('O=S(=O)(Nc1nccs1)c1ccc2c(-c3ccc(F)cc3Oc3cccnn3)nccc2c1', 'Sodium channel protein type 9 subunit alpha (Homo sapiens)', 'IC50', 13.5),
  ('CN1CCC(c2cc(C(F)(F)F)ccc2-c2cccc3cc(S(=O)(=O)Nc4ncc(F)s4)ccc23)CC1', 'Sodium channel protein type 9 subunit alpha (Homo sapiens)', 'IC50', 0.282);

Now for the compound whose IC50 we want.
Item `O=S(=O)(Nc1ccncn1)c1ccc2c(-c3cc(C(F)(F)F)ccc3F)nccc2c1` has what recorded IC50?
10.8

From: ChEMBL document CHEMBL3638921
